# Measured Target: T1, human EphA4 (Homo sapiens, UniProt P54764)
# T1 construct: made in house; not restated for the human SEAP-His protein
# T1 sequence (P54764 20-547): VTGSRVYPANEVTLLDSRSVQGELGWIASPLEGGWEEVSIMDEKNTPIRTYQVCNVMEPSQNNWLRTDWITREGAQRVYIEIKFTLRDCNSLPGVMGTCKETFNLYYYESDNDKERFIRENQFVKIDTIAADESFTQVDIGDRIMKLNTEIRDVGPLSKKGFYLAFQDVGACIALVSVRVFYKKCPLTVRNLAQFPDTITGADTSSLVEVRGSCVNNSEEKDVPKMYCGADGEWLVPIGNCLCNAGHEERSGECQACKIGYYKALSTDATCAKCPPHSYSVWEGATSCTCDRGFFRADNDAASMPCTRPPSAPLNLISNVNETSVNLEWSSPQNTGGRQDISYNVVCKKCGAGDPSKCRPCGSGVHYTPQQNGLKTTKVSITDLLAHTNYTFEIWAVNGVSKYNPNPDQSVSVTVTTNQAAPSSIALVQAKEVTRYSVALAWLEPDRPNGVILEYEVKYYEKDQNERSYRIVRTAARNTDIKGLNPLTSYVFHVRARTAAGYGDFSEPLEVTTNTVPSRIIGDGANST
# Test Description: Affinity of humanized antibodies by SPR (Biacore T200)
# Assay type: binding
# Experimental Conditions: human EphA4 extracellular region-SEAP-His; KD=kd/ka
# Experimental: The binding affinity of each anti-EphA4 monoclonal humanized antibody obtained in Example 16 for human EphA4 was determined by surface plasmon resonance (SPR) using Biacore T200 (GE Healthcare). First, for the assay of antibody A, a rat anti-mouse IgG1 antibody produced with a conventional method by immunizing rat with mouse IgG1 antibody was immobilized on sensor chip CM5. […]
Measured Property: pKd
Value format note: pKd is -log10 of concentration (mol/L); just state the number.

Inquiry: Report pKd for 89 (antibody, V domains shown, constant regions without entry; synthetic humanized antibody light chain variable region sequence; synthetic humanized antibody heavy chain variable region sequence) VL: DIQMTQSPSSLSASVGDRVTITCRASENIYRNLAWYQQKPGKAPQLLLYAATNLADGVPSRFSGSGSGTDYTLTISSLQPEDFATYYCQHFWGTPWTFGQGTKVEIK VH: QIQLVQSGSELKKPGASVKVSCKASGYTFTDYSMHWVRQAPGQGLKWMGWINTETGEPTYAQGFTGRFVFSLDTSVSTAYLQISSLKAEDTAVYYCARIPLYYYGSRYWYFDVWGQGTTVTVSS please.
Reply text: 8.89

// moving on: another record for pKd
Inquiry: Need pKd, item 159 (antibody, V domains shown, synthetic humanized antibody heavy chain variable region sequence; synthetic humanized antibody light chain variable region sequence) VH: QVQLVQSGSELKKPGASVKVSCKASGYTFTDYSMHWVRQAPGQGLKWMGWINTETGEPTYADDFKGRFVFSLDTSVSTAYLQISSLKAEDTAVYYCARIPLYYYGSRYWYFDVWGQGTTVTVSS VL: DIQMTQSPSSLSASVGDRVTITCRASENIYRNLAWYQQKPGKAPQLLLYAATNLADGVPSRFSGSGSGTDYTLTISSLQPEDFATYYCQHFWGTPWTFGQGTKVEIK
Reply text: 8.70
